# Test system: ACHN
# TEST_PROTOCOL: NCI tumour cell line growth inhibition, 48 h
Active and inactive are the calls of the source. Cut-off read from the data, not from the text of the source: active = GI50 up to about 1.1 µM and inactive = higher.
Outcome codes: active, inactive

{"COMPOUND": "CC1(C)C(=O)N(c2ccccc2)C(=O)N1c1nc2ccccc2[nH]1", "ANSWER_LABEL": "inactive"}
{"COMPOUND": "COC(=O)C1CCOC(C)N1C(=O)OC(C)(C)C (stereo not given)", "ANSWER_LABEL": "inactive"}
{"COMPOUND": "C/C(=N/NC(=S)Nc1cccc(Cl)c1)c1cccc(/C(C)=N\\NC(=S)Nc2cccc(Cl)c2)n1", "ANSWER_LABEL": "active"}
{"COMPOUND": "CCN(CC)CCCNc1nc(=O)[nH]c(C)c1C(=O)Nc1c2ccccc2nc2ccccc12", "ANSWER_LABEL": "inactive"}
{"COMPOUND": "C1OC1CO[C@@H]1CO[C@H]2[C@@H]1OC[C@H]2OCC1CO1 (stereo not given in full)", "ANSWER_LABEL": "inactive"}
{"COMPOUND": "N[C@H]1CCC[C@@H](O)C1O (stereo not given in full)", "ANSWER_LABEL": "inactive"}
{"COMPOUND": "Cc1nn(C(=O)c2ccc(Cl)cc2)c2c1C(c1ccccc1[N+](=O)[O-])SC(=N)N2 (stereo not given)", "ANSWER_LABEL": "inactive"}
{"COMPOUND": "Cc1ccc(S(=O)(=O)N(CC(O)COc2ccccc2)c2c(F)c(F)cc(F)c2F)cc1 (stereo not given)", "ANSWER_LABEL": "inactive"}
{"COMPOUND": "CC(=O)c1[nH]c(NC(C)C)c(C(=S)Nc2ccccc2)c1N", "ANSWER_LABEL": "inactive"}
{"COMPOUND": "O=C1O[C@@H](c2ccccc2)C[C@H]1CN1CCOCC1", "ANSWER_LABEL": "inactive"}
